- Test system: angiogenesis genes in dermal microvascular endothelial cells
- protocol: Real time RT-PCR of angiogenesis gene expression during endothelial tube formation
- Format: cell-based
- condition_set: 1 μM SM, 24 hours
Quick rule: Log2 fold-change of gene expression: Pltp of at least 0.9 means 1, below that means -1.

compound: CC1CCN(CC[S-])CC1.O.O.[Cl][Pt+]
classification: -1

compound: COC(=O)C1CC(=O)C(C(=O)OC)CC1=O (stereo not drawn)
classification: 1

compound: COc1ccc(CC2C(=O)NC(C)C(=O)N(C)C3Cc4ccc(cc4)Oc4cc(ccc4O)CC(C(=O)NC(C)C(=O)NC(C)C(=O)N2C)N(C)C3=O)cc1 (stereo not drawn)
classification: 1

compound: COc1cc2cc(c1Cl)N(C)C(=O)CC(OC(=O)C(C)C)C1(C)OC1C(C)C1CC(O)(NC(=O)O1)C(OC)/C=C/C=C(\C)C2 (stereo not drawn)
classification: -1
